- Test system: human colon cancer (Caco-2) cell line
- Experiment description: cells
- Format: cell-based
- Experimental context: Conc.: 5a 53.81, 5d 50.55, 5e 49.15, 5f 47.26, 7a 50.86, 7f 44.96, DOX 46.00
Collected Viability %, Caco-2, 3rd concentration values appear next to each entry.
Endpoint: Viability %, Caco-2, 3rd concentration (%)

> print(dat)
                                   compound  output.unit  reported.measurement
1  COc1ccc(Nc2n[nH]c(/N=C/c3ccc(N4CCCCC4)cc3)c2C(=O)Nc2ccc(C)cc2)cc1 [5e]            %                 40.04
2  COc1ccc(Nc2n[nH]c(N=Cc3ccc(N4CCCCC4)cc3)c2C(=O)Nc2ccc(Cl)cc2)cc1 [5f]            %                 61.88
3  Cc1c(C=Nc2[nH]nc(Nc3ccccc3)c2C(=O)Nc2ccccc2)c(=O)n(-c2ccccc2)n1C [7a]            %                 40.04
4  COc1ccc(Nc2n[nH]c(/N=C/c3ccc(N4CCCCC4)cc3)c2C(=O)Nc2ccccc2)cc1 [5d]            %                 40.54
5  O=C(Nc1ccccc1)c1c(Nc2ccccc2)n[nH]c1N=Cc1ccc(N2CCCCC2)cc1 [5a]            %                 55.38
6  COc1ccc(Nc2n[nH]c(N=Cc3c(C)n(C)n(-c4ccccc4)c3=O)c2C(=O)Nc2ccc(Cl)cc2)cc1 [7f]            %                 54.13

----------
Collected viability at 48 h values appear next to each entry.
- Experiment description: Cytotoxic activity, MTT assay, normal lung (WI-38)
- Assay type: cell-based
- Experimental context: human, WI-38 normal lung cells, Conc.: 5a 13.45, 5d 12.64, 5e 12.29, 5f 11.81, 7a 12.72, 7f 11.24, DOX 11.50; read-out: Viability %, WI-38, 1st concentration
Endpoint: viability at 48 h (%)

> print(dat)
                           smiles.structure  output.unit  reported.measurement
1  COc1ccc(Nc2n[nH]c(N=Cc3c(C)n(C)n(-c4ccccc4)c3=O)c2C(=O)Nc2ccc(Cl)cc2)cc1            %                  95.2
2  Cc1c(C=Nc2[nH]nc(Nc3ccccc3)c2C(=O)Nc2ccccc2)c(=O)n(-c2ccccc2)n1C            %                  98.7
3  COc1ccc(Nc2n[nH]c(/N=C/c3ccc(N4CCCCC4)cc3)c2C(=O)Nc2ccccc2)cc1            %                  98.7
4  O=C(Nc1ccccc1)c1c(Nc2ccccc2)n[nH]c1N=Cc1ccc(N2CCCCC2)cc1            %                  81.4
5  COc1ccc(Nc2n[nH]c(N=Cc3ccc(N4CCCCC4)cc3)c2C(=O)Nc2ccc(Cl)cc2)cc1            %                  87.9
6  COc1ccc(Nc2n[nH]c(/N=C/c3ccc(N4CCCCC4)cc3)c2C(=O)Nc2ccc(C)cc2)cc1            %                  92.9
